Details: in ethyl acetate, 313.15 K
Metric: solubility (mole fraction)
One number for each entry.

Input CCC[C@H](N)C(=O)O . Output solubility (mole fraction): 0.000449

----------
Conditions: in n-pentanol, 298.15 K
Metric: solubility (mole fraction)
Give bare numbers.

Input CCC[C@H](N)C(=O)O . Output solubility (mole fraction): 0.000508

----------
Settings: in ethyl acetate, 323.15 K
Metric: solubility (mole fraction)
Numbers only.

Input CCC[C@H](N)C(=O)O . Output solubility (mole fraction): 0.00056

----------
Settings: in ethyl acetate, 303.15 K
Metric: solubility (mole fraction)
Numbers only.

Input CCC[C@H](N)C(=O)O . Output solubility (mole fraction): 0.000301
